target: Transforming acidic coiled-coil-containing protein 3 (Homo sapiens) (UniProt Q9Y6A5); test: inhibition of ARNT PAS-B/TACC3 complex formation – biochemical, AlphaScreen, cherry-picked samples, confirmation (AID 651703); conditions: AlphaScreen His-ARNT PAS-B / GST-TACC3 binding, luminescence;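 further: TACC3 partner is the GST-tagged E629A mutant dimer; hits lower the signal meaning they disrupt ARNT binding to TACC3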
Entries annotated with measured AC50

Below, each entry is followed by its recorded AC50 result.
>>> test_value("C/C=C/c1ccc([C@H]2[C@@H](CNC(=O)CC)N(Cc3ccccn3)[C@H]2CO)cc1")
"45 µM"
>>> test_value("Cc1ccccc1-n1c(O)c(/C=N/NC(=O)c2ccncc2)c(=O)[nH]c1=O")
"11.5 µM"
>>> test_value("Cc1cc([N+](=O)[O-])cc(/C=N\\NC(=O)C2COc3ccccc3O2)c1O (stereo not drawn)")
"36.3 µM"

Quick one: AC50 for COc1cc([N+](=O)[O-])cc(/C=N/NC(=O)Cn2cncn2)c1O ?
5.87 µM

---

biological target: UniProtKB Q9Y6A5; test: inhibition of ARNT PAS-B/TACC3 complex formation – biochemical, AlphaScreen, cherry-picked samples, confirmation (AID 651703); details: AlphaScreen His-ARNT PAS-B / GST-TACC3 binding, luminescence;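 further: TACC3 partner is the GST-tagged E629A mutant dimer; hits lower the signal meaning they disrupt ARNT binding to TACC3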
Entries annotated with measured AC50

Below, each entry is followed by its recorded AC50 result.
>>> test_value("O=C(N/N=C/c1c(O)ccc2ccccc12)c1ccc(CO)nc1")
"10.8 µM"
>>> test_value("O=C(CNCc1ccccn1)Nc1cc(C(F)(F)F)ccc1N1CCOCC1")
"17.4 µM"

Quick one: AC50 for O=C(O)C1CCCCC1C(=O)NCCCn1ccnc1 (configuration not stated) ?
54.4 µM

Quick one: AC50 for CCCn1nc(C(=O)Nc2nc(-c3ccccn3)cs2)c2ccccc2c1=O ?
9.63 µM

Quick one: AC50 for Oc1c(C(Nc2ccccn2)c2cccnc2)cc(Cl)c2cccnc12 (configuration not stated) ?
5.67 µM

Quick one: AC50 for Cc1nnc(SCC(=O)Nc2nnc(-c3ccccc3)o2)s1 ?
16.4 µM

Quick one: AC50 for CCOc1cccc(/C=N/NC(=O)c2cc(-c3cccn3C)n[nH]2)c1O ?
17.1 µM

Quick one: AC50 for O=C(Oc1ccc(Cl)c2cccnc12)c1cccnc1 ?
9.58 µM

Quick one: AC50 for Brc1ccc(-c2nn3c(-c4ccccn4)nnc3s2)o1 ?
9.12 µM

Quick one: AC50 for Cc1ccccc1-n1c(SCC(=O)Nc2ccc3c(c2)OCO3)nnc1-c1ccccn1 ?
15.6 µM

Quick one: AC50 for Cc1ccccc1CS(=O)(=O)Cc1ccc(C(=O)NCc2ccccn2)o1 ?
31.6 µM

Quick one: AC50 for C/C(=N\NC(=O)C1CCCN(S(=O)(=O)c2ccccc2)C1)c1ccccn1 (configuration not stated) ?
11.1 µM

Quick one: AC50 for CCC(COC)Oc1cc(NCc2ccccc2)c2ncn(C(C)C)c2c1 (configuration not stated) ?
23.9 µM

Quick one: AC50 for N#CC1=C(N)Oc2c(ccc3cccnc23)C1c1ccccc1 (configuration not stated) ?
17.7 µM

Quick one: AC50 for O=C(CNS(=O)(=O)c1ccc([N+](=O)[O-])cc1)N/N=C/c1ccc(O)cc1O ?
19.2 µM

Quick one: AC50 for COc1ccc(C(=O)Cc2nnc(C)s2)c(OC)c1 ?
67.3 µM

Quick one: AC50 for C[C@H]1CN([C@@H](C)CO)C(=O)c2cccc(NC(=O)Nc3cccc4ccccc34)c2O[C@@H]1CN(C)S(=O)(=O)c1ccc(Cl)cc1 ?
51.9 µM

Quick one: AC50 for Nc1nc(-c2ccccn2)nc(N)c1Cc1ccc(Cl)cc1Cl ?
2.6 µM

Quick one: AC50 for O=C(CSc1n[nH]c(-c2ccccn2)n1)Nc1ccc(F)cc1 ?
1.09 µM

Quick one: AC50 for O=C(N[C@@H]1CC[C@@H](CCn2cc(-c3ccccn3)nn2)O[C@@H]1CO)c1cccnc1 ?
13.1 µM

Quick one: AC50 for Oc1cc(Nc2ccncc2)cc2cccnc12 ?
0.676 µM

Quick one: AC50 for CO[C@@H]1CN(C)C(=O)c2ccc(NC(=O)c3ccccn3)cc2OC[C@@H](C)N(C(=O)C2CC2)C[C@H]1C ?
13.1 µM
